test system: MOLT-4 leukemia; assay: NCI-60 one-dose screen, 48 h; settings: 10 µM unless noted
Compounds without any hit were thinned out: in the full panel of roughly 83,000, 20% have a hit. Activity calls are given as the source filed them. The calls were made as follows: active = growth percent below 10; inactive = the rest.
Labels: active, inactive

[
  {
    "compound": "O=C1c2c(c3c4cc(Br)ccc4[nH]c3c3ccc4ccccc4c23)C(=O)N1CCN1CCNCC1",
    "experimental_target": "MOLT-4 leukemia",
    "class": "active"
  },
  {
    "compound": "COc1cc(C(=O)c2cc(C(C)=O)c3c4ccccc4ccn23)cc(OC)c1OC",
    "experimental_target": "MOLT-4 leukemia",
    "class": "inactive"
  },
  {
    "compound": "CC[C@@](C)(NC(=O)C(C)(C)NC(=O)[C@@H](NC(=O)[C@@H]1CCCN1C(=O)C(C)(C)NC(=O)[C@H](CC(C)C)NC(=O)CNC(=O)C(C)(C)NC(=O)[C@@H](NC(=O)C(C)(C)NC(=O)[C@H](CCC(N)=O)NC(=O)[C@H](C)NC(=O)C(C)(C)NC(=O)[C@H](C)NC(=O)C(C)(C)NC(=O)[C@H](C)NC(=O)C(C)(C)NC(C)=O)C(C)C)C(C)C)C(=O)N[C@@H](CCC(N)=O)C(=O)N[C@@H](CCC(N)=O)C(=O)N[C@H](CO)CC1CCCCC1",
    "experimental_target": "MOLT-4 leukemia",
    "class": "inactive"
  },
  {
    "compound": "Nc1ccc(-c2nnc(SCc3ccc(O)c4ncccc34)n2-c2ccccc2)cc1",
    "experimental_target": "MOLT-4 leukemia",
    "class": "inactive"
  },
  {
    "compound": "CCN(CC)CCN1C(=O)c2c(c3c4cc(Br)ccc4[nH]c3c3ccc4ccccc4c23)C1=O",
    "experimental_target": "MOLT-4 leukemia",
    "class": "active"
  },
  {
    "compound": "O=C1NC(=O)/C(=C/c2ccc(OCc3cc4ccccc4nc3Cl)cc2)S1",
    "experimental_target": "MOLT-4 leukemia",
    "class": "inactive"
  },
  {
    "compound": "C#C[C@]1(O)CC[C@H]2[C@@H]3CC=C4c5sc(Nc6cccc(C)n6)nc5CC[C@]4(C)[C@H]3CC[C@@]21C",
    "experimental_target": "MOLT-4 leukemia",
    "class": "active"
  },
  {
    "compound": "Cc1cn(-c2cc(NC(=O)c3cncc(C#Cc4cnc5ccc(O[C@H]6CCOC6)nn45)c3)cc(C(F)(F)F)c2)cn1",
    "experimental_target": "MOLT-4 leukemia",
    "class": "inactive"
  },
  {
    "compound": "CC1=CC(=O)CC(C)(C)[C@@]1(O)/C=C/C(C)=C\\C(=O)O",
    "experimental_target": "MOLT-4 leukemia",
    "class": "active"
  },
  {
    "compound": "CC1(C)CC[C@]2(C(=O)O)CC[C@]3(C)C(=CCC4[C@@]5(C)C[C@@H](O)[C@@H]6OC(c7ccccc7O)OC[C@@]6(C)C5CC[C@]43C)C2C1 (stereo not given in full)",
    "experimental_target": "MOLT-4 leukemia",
    "class": "inactive"
  },
  {
    "compound": "CC(=O)Nc1ccc(NC(=O)Nc2cccc(-c3nc(-c4ccc(NC(=O)c5cccs5)cc4Cl)no3)c2)cc1C(F)(F)F",
    "experimental_target": "MOLT-4 leukemia",
    "class": "active"
  },
  {
    "compound": "C=CCn1c(SCC(=O)Nc2ccc(OC)cc2)nnc1-c1ccc(Cl)cc1",
    "experimental_target": "MOLT-4 leukemia",
    "class": "inactive"
  },
  {
    "compound": "O=C(Nc1ccc(F)cc1)c1cc(-c2ccc(F)cc2F)ccc1O",
    "experimental_target": "MOLT-4 leukemia",
    "class": "inactive"
  },
  {
    "compound": "O=C(CCCCCCN1CC(=O)N2[C@@H](c3cccc(Cl)c3)c3[nH]c4ccccc4c3C[C@H]2C1=O)NO",
    "experimental_target": "MOLT-4 leukemia",
    "class": "inactive"
  },
  {
    "compound": "O=C(c1cccc(F)c1)n1ccc2cc(NC(=S)Nc3cccnc3)ccc21",
    "experimental_target": "MOLT-4 leukemia",
    "class": "inactive"
  }
]

====

tested on: COLO 205 colon; experiment: NCI-60 one-dose screen, 48 h; conditions: 10 µM unless noted
About 83,000 compounds went through this panel and 20% of them were active in at least one assay; those are over-represented in the sample as a whole. Activity calls are given as the source filed them. The calls were made as follows: active = growth percent below 10; inactive = the rest.
Possible outcomes: yes for active, no for inactive

[
  {
    "compound": "CCN1C(=O)N(CC)C2SC(N/N=C/c3cccs3)=NC21 (stereo not drawn)",
    "class": "yes"
  },
  {
    "compound": "O=C(Nc1cc(Cl)cc(Cl)c1)Nc1ccc2oc(=O)ccc2c1",
    "class": "yes"
  },
  {
    "compound": "O=C(c1cccc(F)c1)n1ccc2cc(NC(=S)Nc3cccnc3)ccc21",
    "class": "no"
  },
  {
    "compound": "O=C1C[C@@H](c2ccccc2)Oc2c(Cc3ccccc3O)c(O)c(Cc3cc(Cc4cc(Cc5ccccc5O)ccc4O)ccc3O)c(O)c21",
    "class": "no"
  },
  {
    "compound": "CC(C)c1nn(-c2ccccc2)c(N2CCCCC2)c1/C=N/NC(N)=S",
    "class": "no"
  },
  {
    "compound": "C=CCn1c(SCC(=O)Nc2cccc(C(=O)/C=C/c3cc(OC)c(OC)c(OC)c3)c2)nc2ccccc2c1=O",
    "class": "no"
  },
  {
    "compound": "NS(=O)(=O)c1ccc(Nc2nc(N/N=C/c3ccc([N+](=O)[O-])cc3)nc(Nc3ccccc3)n2)cc1",
    "class": "no"
  },
  {
    "compound": "C[C@H]1[C@H](C)CC[C@]2(COC(=O)c3cccnc3)CC[C@]3(C)C(=CC[C@@H]4[C@@]5(C)CCCNC(C)(C)[C@@H]5CC[C@]43C)[C@H]12",
    "class": "no"
  }
]

====

System: NCI-H226 lung
Experiment: NCI-60 one-dose screen, 48 h
Conditions: 10 µM unless noted
Protocol: Growth inhibition of the NCI-H226 human Non-Small Cell Lung tumor cell line is measured as a screen for anti-cancer activity. Cells are grown in 96 well plates and exposed to the test compound for 48 hours. Compounds are tested at a single concentration, which is 10^-5 M for most compounds. The reported endpoint is percent growth (GI% or GIPRCNT), where numbers from 0 - 100% represent growth inhibition, and numbers from -100% - 0 represent cell death. […]
The panel holds about 83,000 compounds, 20% with a hit somewhere; the sample as a whole holds those more often. Activity calls are given as the source filed them. How the source made its calls: active means growth percent below 10; inactive means the rest.
Outcomes: active, inactive

[
  {
    "compound": "Cc1ccc(C2CC(c3ccc(Nc4nc(NCCO)nc(Nc5ccc(Cl)cc5)n4)cc3)=Nc3c(N)nc(N)nc3N2)cc1 (stereo not drawn)",
    "class": "inactive"
  },
  {
    "compound": "O=C(CN1CCN(c2cc(=O)n(-c3ccccc3)c3ccccc23)CC1)Nc1ccc([N+](=O)[O-])cc1",
    "class": "inactive"
  },
  {
    "compound": "COc1cc(CNC(=O)/C=C/c2ccccc2)ccc1OCC(=O)NO",
    "class": "inactive"
  },
  {
    "compound": "CCN1C(=O)N(CC)C2SC(N/N=C/c3cccs3)=NC21 (stereo not drawn)",
    "class": "inactive"
  },
  {
    "compound": "COc1ccc(C(=O)n2cc(C=O)c3ccccc32)cc1",
    "class": "inactive"
  },
  {
    "compound": "COc1cc2c3c(n(CCCN4CCCC4)c(=O)c2cc1OC)-c1cc2c(cc1C3=O)OCO2",
    "class": "inactive"
  },
  {
    "compound": "COC1=C(c2ccccc2)C(=O)C(OC)=C(c2ccccc2)C1=O",
    "class": "inactive"
  },
  {
    "compound": "COc1ccc2c(c1)c(-c1nnc(N)nc1-c1cn(C)c3ccccc13)cn2C",
    "class": "inactive"
  },
  {
    "compound": "COc1cc2c3c(n(CCCNCC4CC4)c(=O)c2cc1OC)-c1cc2c(cc1C3=O)OCO2",
    "class": "inactive"
  },
  {
    "compound": "COc1cc(C(=O)c2cc(C(C)=O)c3c4ccccc4ccn23)cc(OC)c1OC",
    "class": "inactive"
  },
  {
    "compound": "COc1ccc(C2CC(c3ccc(Nc4nc(NCCO)nc(Nc5ccc(Cl)cc5)n4)cc3)=Nc3c(N)nc(N)nc3N2)cc1 (stereo not drawn)",
    "class": "inactive"
  },
  {
    "compound": "CCc1ccc(NC(=O)N[C@@H](Cc2cc(F)cc(F)c2)C(=O)N[C@@H]2C(=O)N3CCC[C@H]3C(=O)N3CCO[C@H](C)[C@H]3C(=O)N[C@@H](CO)C(=O)N3C[C@H](C)C[C@H]3C(=O)O[C@H]2C)c(F)c1",
    "class": "active"
  },
  {
    "compound": "COc1cc2c3c(n(CCCNC4CCCC4)c(=O)c2cc1OC)-c1cc2c(cc1C3=O)OCO2",
    "class": "inactive"
  },
  {
    "compound": "COc1cc2oc(-c3cccc(NC(=O)c4cc(NC(=O)[C@H](C)N)ccc4Cl)c3)cc(=O)c2c(OC)c1OC",
    "class": "inactive"
  },
  {
    "compound": "Cc1nn(-c2ccccc2)c2nc(CCl)[nH]c(=O)c12",
    "class": "inactive"
  },
  {
    "compound": "C=CCn1c(SCC(=O)Nc2cccc(C(=O)/C=C/c3ccc(C)cc3)c2)nc2ccccc2c1=O",
    "class": "inactive"
  },
  {
    "compound": "Cn1cc(-c2nnc(N)nc2-c2cn(C)c3ccc(F)cc23)c2cc(F)ccc21",
    "class": "inactive"
  },
  {
    "compound": "N#Cc1c(NC(=O)c2ccccc2C(F)(F)F)sc2c1CCC(=O)C2",
    "class": "inactive"
  }
]
